Test system: 695427-040-R-J1-PDC complex spheroid viability;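 further: viability read after seven days of drug exposure; 100% = DMSO vehicle control viability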
Assay: Anticancer human tumor 695427-040-R-J1-PDC patient-derived colon adenocarcinoma cell line growth inhibition [RAS]
Conditions: second compound 0.01 µM; first compound 0.316 µM; stronger effect = lower value
# Lookup of reported viability, T/C keyed by entry
measure: viability, T/C (%)

[[record]]
compound = "O=C(c1ccc(F)c(F)c1Nc1ccc(I)cc1F)N1CC(O)([C@@H]2CCCCN2)C1 + C=CC(=O)N1CCN(c2nc(OCC3CCCN3C)nc3c(F)c(-c4nc(N)cc(C)c4C(F)(F)F)c(Cl)cc23)C(C)C1"
measure = "viability, T/C"
uom = "%"
assay_value = 15.9

[[record]]
compound = "Cc1nc(N2CCC3(CC2)COC(C)C3N)c(CO)nc1Sc1ccnc(N)c1Cl (configuration not stated) + C=CC(=O)N1CCN(c2nc(OCC3CCCN3C)nc3c(F)c(-c4nc(N)cc(C)c4C(F)(F)F)c(Cl)cc23)C(C)C1"
measure = "viability, T/C"
uom = "%"
assay_value = 71.9

[[record]]
compound = "CC(Nc1ccc2c(c1)OCCn1cc(N3C(=O)OCC3C(F)F)nc1-2)C(N)=O (configuration not stated) + C=CC(=O)N1CCN(c2nc(OCC3CCCN3C)nc3c(F)c(-c4nc(N)cc(C)c4C(F)(F)F)c(Cl)cc23)C(C)C1"
measure = "viability, T/C"
uom = "%"
assay_value = 56.5

[[record]]
compound = "CC(C)NCC(C(=O)N1CCN(c2ncnc3c2C(C)CC3O)CC1)c1ccc(Cl)cc1 (configuration not stated) + C=CC(=O)N1CCN(c2nc(OCC3CCCN3C)nc3c(F)c(-c4nc(N)cc(C)c4C(F)(F)F)c(Cl)cc23)C(C)C1"
measure = "viability, T/C"
uom = "%"
assay_value = 88.5

[[record]]
compound = "CCC(CC)c1cc(NC2CCC(N)C2)n2nccc2n1 (configuration not stated) + C=CC(=O)N1CCN(c2nc(OCC3CCCN3C)nc3c(F)c(-c4nc(N)cc(C)c4C(F)(F)F)c(Cl)cc23)C(C)C1"
measure = "viability, T/C"
uom = "%"
assay_value = 119

[[record]]
compound = "C[C@@H](NC(=O)c1ncnc(N)c1Cl)c1ncc(C(=O)Nc2cc(C(F)(F)F)c(Cl)cn2)s1 + C=CC(=O)N1CCN(c2nc(OCC3CCCN3C)nc3c(F)c(-c4nc(N)cc(C)c4C(F)(F)F)c(Cl)cc23)C(C)C1"
measure = "viability, T/C"
uom = "%"
assay_value = 114

[[record]]
compound = "CC1(O)CCCC1n1c(=O)c(C(F)F)cc2cnc(NC3CCN(S(C)(=O)=O)CC3)nc21 (configuration not stated) + C=CC(=O)N1CCN(c2nc(OCC3CCCN3C)nc3c(F)c(-c4nc(N)cc(C)c4C(F)(F)F)c(Cl)cc23)C(C)C1"
measure = "viability, T/C"
uom = "%"
assay_value = 104

[[record]]
compound = "Nc1ccn(C2OC(CO)C(O)C2(F)F)c(=O)n1 (configuration not stated) + C=CC(=O)N1CCN(c2nc(OCC3CCCN3C)nc3c(F)c(-c4nc(N)cc(C)c4C(F)(F)F)c(Cl)cc23)C(C)C1"
measure = "viability, T/C"
uom = "%"
assay_value = 76.2

[[record]]
compound = "CC(=O)OC12COC1CC(O)C1(C)C(=O)C(O)C3=C(C)C(OC(=O)C(O)C(NC(=O)OC(C)(C)C)c4ccccc4)CC(O)(C(OC(=O)c4ccccc4)C21)C3(C)C (configuration not stated) + C=CC(=O)N1CCN(c2nc(OCC3CCCN3C)nc3c(F)c(-c4nc(N)cc(C)c4C(F)(F)F)c(Cl)cc23)C(C)C1"
measure = "viability, T/C"
uom = "%"
assay_value = 71

[[record]]
compound = "CCN1CCN(Cc2ccc(Nc3ncc(F)c(-c4cc(F)c5nc(C)n(C(C)C)c5c4)n3)nc2)CC1 + C=CC(=O)N1CCN(c2nc(OCC3CCCN3C)nc3c(F)c(-c4nc(N)cc(C)c4C(F)(F)F)c(Cl)cc23)C(C)C1"
measure = "viability, T/C"
uom = "%"
assay_value = 101

[[record]]
compound = "C=CC(=O)Nc1cc(Nc2nccc(-c3cn(C)c4ccccc34)n2)c(OC)cc1N(C)CCN(C)C + C=CC(=O)N1CCN(c2nc(OCC3CCCN3C)nc3c(F)c(-c4nc(N)cc(C)c4C(F)(F)F)c(Cl)cc23)C(C)C1"
measure = "viability, T/C"
uom = "%"
assay_value = 57.5

[[record]]
compound = "NC1c2ccccc2OC12CCN(c1cnc3c(N4CCCc5ncccc54)n[nH]c3n1)CC2 (configuration not stated) + C=CC(=O)N1CCN(c2nc(OCC3CCCN3C)nc3c(F)c(-c4nc(N)cc(C)c4C(F)(F)F)c(Cl)cc23)C(C)C1"
measure = "viability, T/C"
uom = "%"
assay_value = 63.3

